Tested on: Phaedon cochleariae larvae
assay.notes: Phaedon cochleariae larvae test (sprayed cabbage leaves)
reported.conditions: Phaedon cochleariae, in Brassica oleracea, 144 h, read-out: Destruction in % after 6 d

compound: CN/C(=N\[N+](=O)[O-])NCc1cnc(Cl)s1
pest or weed control at 4 g/ha: 33%

compound: N#C/N=C1\SCCN1Cc1ccc(Cl)nc1
pest or weed control at 4 g/ha: 17%

compound: CN/C(=N\[N+](=O)[O-])NCC1CCOC1 (centres unmarked)
pest or weed control at 4 g/ha: 0%

compound: CN1COCN(Cc2cnc(Cl)s2)/C1=N/[N+](=O)[O-]
pest or weed control at 4 g/ha: 17%

compound: O=[N+]([O-])/N=C1\NCCN1Cc1ccc(Cl)nc1
pest or weed control at 4 g/ha: 0%
